- Test system: Setaria faberi (SETFA)
- experiment.notes: Post-emergence Test (glasshouse, percentage damage to the plant)
- Format: in vivo
- assay.conditions: post-emergence spray, 1000 g/ha unless otherwise stated, evaluated after 13 days
This listing pairs compounds with measured Post-emergence Test SETFA, percentage damage to the plant (five-point scale).
readout.name: Post-emergence Test SETFA, percentage damage to the plant (five-point scale)

chem.smiles	tgt	result
CCn1c(C)c(-c2ccc(Cl)cc2C)c(=O)c(C(=O)O)c1-c1ccc(Cl)c(Cl)c1	Setaria faberi (SETFA)	4 (4=61-80%)
CCn1c(C)c(-c2ccc(Cl)cc2OC)c(=O)c(C(=O)O)c1-c1ccc(Cl)c(Cl)c1	Setaria faberi (SETFA)	4 (4=61-80%)
CCOc1cc(-c2c(C)n(CC)c(-c3ccc(Cl)c(Cl)c3)c(C(=O)O)c2=O)ccc1C(F)(F)F	Setaria faberi (SETFA)	1 (1=0-20%)
CCn1c(C)c(-c2cc(C)c(Cl)c(C)c2)c(=O)c(C(=O)O)c1-c1ccc(Cl)cc1	Setaria faberi (SETFA)	1 (1=0-20%)
CCn1c(C)c(-c2ccc(SC)cc2)c(=O)c(C(=O)O)c1-c1ccc(Cl)c(Cl)c1	Setaria faberi (SETFA)	2 (2=21-40%)
CCc1ccc(-c2c(C)n(CC)c(-c3ccc(Cl)c(Cl)c3)c(C(=O)O)c2=O)cc1	Setaria faberi (SETFA)	1 (1=0-20%)
CCn1c(C)c(-c2ccc(C(F)(F)F)nc2)c(=O)c(C(=O)O)c1-c1ccc(Cl)c(Cl)c1	Setaria faberi (SETFA)	3 (3=41-60%)
CCn1c(C)c(-c2ccccc2)c(=O)c(C(=O)O)c1-c1ccc(Cl)c(Cl)c1	Setaria faberi (SETFA)	4 (4=61-80%)

###

- Test system: Echinochloa crus-galli (ECHCG)
- experiment.notes: Post-emergence Test (glasshouse, percentage damage to the plant)
- Type: in vivo
- assay.conditions: post-emergence spray, 1000 g/ha unless otherwise stated, evaluated after 13 days
readout.name: Post-emergence Test ECHCG, percentage damage to the plant (five-point scale)

molecule	result
CCn1c(C)c(-c2ccc(Cl)cc2)c(=O)c(C(=O)O)c1-c1ccc(F)cc1F [Compound 130]	3 (3=41-60%)
CCn1c(C)c(-c2cc(C)cs2)c(=O)c(C(=O)O)c1-c1ccc(Cl)c(Cl)c1 [Compound 86]	3 (3=41-60%)
CCn1c(C)c(-c2ccccc2)c(=O)c(C(=O)O)c1-c1ccc(F)cc1F [Compound 135]	0
CCn1c(C)c(-c2cc(F)c(OC)c(Cl)c2)c(=O)c(C(=O)O)c1-c1ccc(Cl)c(Cl)c1 [Compound 75]	1 (1=0-20%)
CCn1c(C)c(-c2cccc(SC)c2)c(=O)c(C(=O)O)c1-c1ccc(Cl)c(Cl)c1 [Compound 114]	1 (1=0-20%)
CCn1c(C)c(-c2cccs2)c(=O)c(C(=O)O)c1-c1ccc(Cl)c(Cl)c1 [Compound 74]	3 (3=41-60%)
CCn1c(C)c(-c2cc(C)cc(C#N)c2)c(=O)c(C(=O)O)c1-c1ccc(Cl)c(Cl)c1 [Compound 80]	1 (1=0-20%)
CCn1c(C)c(-c2csc(Cl)c2)c(=O)c(C(=O)O)c1-c1ccc(Cl)c(Cl)c1 [Compound 37]	1 (1=0-20%)

###

This listing pairs molecules with measured Post-emergence Test SETFA, percentage damage to the plant (five-point scale).
- System: Setaria faberi (SETFA)
- experiment.notes: Post-emergence Test (glasshouse, percentage damage to the plant)
- Assay type: in vivo
- assay.conditions: post-emergence spray, 1000 g/ha unless otherwise stated, evaluated after 13 days
readout.name: Post-emergence Test SETFA, percentage damage to the plant (five-point scale)

chem.smiles	result
CCn1c(C)c(-c2ccoc2)c(=O)c(C(=O)O)c1-c1ccc(Cl)c(Cl)c1	1 (1=0-20%)
CCn1c(C)c(-c2ccncc2)c(=O)c(C(=O)O)c1-c1ccc(Cl)c(Cl)c1	4 (4=61-80%)
CCn1c(C)c(-c2ccc(Cl)cc2)c(=O)c(C(=O)O)c1-c1ccc(F)c(F)c1	4 (4=61-80%)
CCn1c(C)c(-c2ncco2)c(=O)c(C(=O)O)c1-c1ccc(Cl)c(Cl)c1	3 (3=41-60%)
CCn1c(C)c(-c2cc(Cl)cc(Cl)c2)c(=O)c(C(=O)O)c1-c1ccc(Cl)cc1	0
CCn1c(C)c(-c2cc(F)ccc2Cl)c(=O)c(C(=O)O)c1-c1ccc(Cl)cc1	3 (3=41-60%)
CCn1c(C)c(-c2ccc(OC)c(F)c2)c(=O)c(C(=O)O)c1-c1ccc(Cl)c(Cl)c1	4 (4=61-80%)
CCn1c(C)c(-c2cc(OC)cc(OC)c2)c(=O)c(C(=O)O)c1-c1ccc(Cl)c(Cl)c1	3 (3=41-60%)
CCn1c(C)c(-c2cnn(C)c2)c(=O)c(C(=O)O)c1-c1ccc(Cl)c(Cl)c1	5 (5=81-100%)
CCn1c(C)c(-c2ccc(OCc3ccccc3)cc2)c(=O)c(C(=O)O)c1-c1ccc(Cl)c(Cl)c1	2 (2=21-40%)
CCn1c(C)c(-c2ccccc2)c(=O)c(C(=O)O)c1-c1ccc(F)cc1F	0
CCn1c(C)c(-c2ccc(C(F)(F)F)c(Cl)c2)c(=O)c(C(=O)O)c1-c1ccc(Cl)c(Cl)c1	1 (1=0-20%)
CCn1c(C)c(-c2ccc(Cl)cc2Cl)c(=O)c(C(=O)O)c1-c1ccc(Cl)cc1	4 (4=61-80%)
CCn1c(C)c(-c2ccc(F)cc2OC)c(=O)c(C(=O)O)c1-c1ccc(Cl)c(Cl)c1	4 (4=61-80%)
CCn1c(C)c(-c2cc(C)cc(C(F)(F)F)c2)c(=O)c(C(=O)O)c1-c1ccc(Cl)c(Cl)c1	1 (1=0-20%)
CCn1c(C)c(-c2ccnc(F)c2)c(=O)c(C(=O)O)c1-c1ccc(Cl)c(Cl)c1	4 (4=61-80%)
CCn1c(C)c(-c2ccc(F)cc2F)c(=O)c(C(=O)O)c1-c1ccc(-c2ccc(F)cc2F)c(Cl)c1	2 (2=21-40%)

The origin of these recorded values is patent US12660819B2.
